Each entry below carries its recorded IC50.
target: GRP receptor (Rattus norvegicus); construct: endogenous in cells; test: Assay on binding to GRP receptor ([125I-Tyr4]bombesin displacement, AR42J cell membranes); details: rat AR42J cell membranes, [125I-Tyr4]bombesin, 30 min, 4° C.; read-out: IC50, affinity binding for the GRP receptors
Sequence (P52500 whole entry): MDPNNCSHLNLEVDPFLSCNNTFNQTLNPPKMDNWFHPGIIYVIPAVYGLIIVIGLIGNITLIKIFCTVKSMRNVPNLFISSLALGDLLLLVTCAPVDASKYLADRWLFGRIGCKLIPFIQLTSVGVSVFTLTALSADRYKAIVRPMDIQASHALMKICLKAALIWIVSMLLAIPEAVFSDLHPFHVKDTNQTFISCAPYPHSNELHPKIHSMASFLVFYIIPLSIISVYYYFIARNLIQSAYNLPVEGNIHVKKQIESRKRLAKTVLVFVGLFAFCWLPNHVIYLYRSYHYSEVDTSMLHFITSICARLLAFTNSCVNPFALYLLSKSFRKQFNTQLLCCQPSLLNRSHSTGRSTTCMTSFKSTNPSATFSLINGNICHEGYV
readoutKind: IC50 (nM)

- CCCC[C@H](NC(=O)[C@H](Cc1ccccc1)NC(=O)[C@H](Cc1c[nH]cn1)NC(=O)CNC(=O)[C@@H](NC(=O)[C@H](C)NC(=O)[C@H](Cc1c[nH]c2ccccc12)NC(=O)[C@H](CCC(N)=O)NC(=O)[C@H](N)Cc1ccccc1)C(C)C)C(N)=O: 0.7
- CSCC[C@H](NC(=O)[C@H](Cc1ccccc1)NC(=O)[C@H](Cc1c[nH]cn1)NC(=O)CNC(=O)[C@@H](NC(=O)[C@H](C)NC(=O)[C@H](Cc1c[nH]c2ccccc12)NC(=O)[C@H](CCC(N)=O)NC(=O)[C@H](N)Cc1ccc(O)cc1)C(C)C)C(N)=O: 0.5
